# experiment-summary: water solubility in aqueous buffer under physiological conditions
measurement-label: solubility

>>> print(df.to_string())
                                smiles_code  measurement_label        result
0  COc1cc(Nc2ncc(F)c(Nc3ccc4c(n3)NC(=O)C(C)(C)O4)n2)cc(OC)c1OC         solubility  1 to 2 µg/mL

Where do the numbers come from? From patent US12263180B2.
